Record form. Attribute: mouse IP-10. Fill in for each entry.
System: IP-10
test-protocol: IP-10, mouse (Tables 1-3); note: test concentration or dose not given here
Type: cell-based
condition-context: Table 3, R^1 series; Compound 1 = 100

Answered cases to consult:
Cc1ccc(-n2c(SCC(=O)NC3CCCCC3)nc3c([nH]c4ccccc43)c2=O)cc1
<1
O=C(CSc1nc2c([nH]c3ccccc32)c(=O)n1-c1ccc2ccccc2c1)NC1CCCCC1
<1

// next item, mouse IP-10 requested
-- ask // returns reported mouse IP-10 for input O=C(CSc1nc2c([nH]c3ccccc32)c(=O)n1CCc1ccccc1)NC1CCCCC1
-- reply <1
